# STUDY_SYSTEM: MAGL (Homo sapiens, UniProt Q99685)
# Sequence (Q99685 whole entry, species assumed): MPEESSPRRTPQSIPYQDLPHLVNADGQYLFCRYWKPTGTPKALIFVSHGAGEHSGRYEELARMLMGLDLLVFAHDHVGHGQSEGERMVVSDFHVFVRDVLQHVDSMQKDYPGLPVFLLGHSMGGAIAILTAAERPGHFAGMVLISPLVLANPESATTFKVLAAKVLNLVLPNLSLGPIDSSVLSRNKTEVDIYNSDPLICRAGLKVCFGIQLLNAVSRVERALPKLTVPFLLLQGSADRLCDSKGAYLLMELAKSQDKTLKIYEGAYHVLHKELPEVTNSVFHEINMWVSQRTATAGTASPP
// reported IC50 per item
Answer in nM, number only, no unit symbol.

1) O=C(CCOCCOCCNc1ccc([N+](=O)[O-])c2nonc12)NCCOc1cccc(C(c2ccccc2)C2CCN(C(=O)N3CC[C@@H]4OCC(=O)N[C@@H]4C3)CC2)c1 (single isomer, unassigned); 0.5
2) CC(C)(C)OC(=O)NCCOCCOCCC(=O)NCCOc1cccc([C@H](c2ccccc2)C2CCN(C(=O)N3CC[C@@H]4OCC(=O)N[C@@H]4C3)CC2)c1 (single isomer, unassigned); 1.5
3) O=C(CCOCCNc1ccc([N+](=O)[O-])c2nonc12)NCCOc1cccc(C(c2ccccc2)C2CCN(C(=O)N3CC[C@@H]4OCC(=O)N[C@@H]4C3)CC2)c1 (stereo partly shown); 1.2
4) CC(C)(C)OC(=O)NCCOCCOCCC(=O)NCCOc1cccc(C(c2ccccc2)C2CCN(C(=O)N3CC[C@@H]4OCC(=O)N[C@@H]4C3)CC2)c1 (single isomer, unassigned); 2.6
5) CC(C)(C)OC(=O)NCCOc1cccc(C(c2ccccc2)C2CCN(C(=O)N3CC[C@@H]4OCC(=O)N[C@@H]4C3)CC2)c1 (single isomer, unassigned) [Example 5]; 0.2

Notebook: pull reported IC50 for MAGL (Homo sapiens, UniProt Q99685), entry NCCOCCOCCOCCC(=O)NCCOc1cccc([C@H](c2ccccc2)C2CCN(C(=O)N3CC[C@@H]4OCC(=O)N[C@@H]4C3)CC2)c1 (single isomer, unassigned)
11.4

Note, next up: O=C(CCOCCOCCOCCNc1ccc([N+](=O)[O-])c2nonc12)NCCOc1cccc([C@H](c2ccccc2)C2CCN(C(=O)N3CC[C@@H]4OCC(=O)N[C@@H]4C3)CC2)c1 (single isomer, unassigned)
0.4

Note, next up: CC(C)(C)OC(=O)NCCOc1cccc(C(c2ccccc2)C2CCN(C(=O)N3CC[C@@H]4OCC(=O)N[C@@H]4C3)CC2)c1 (single isomer, unassigned) [Example 4]
0.3

Note, next up: O=C(CCOCCNc1ccc([N+](=O)[O-])c2nonc12)NCCOc1cccc(C(c2ccccc2)C2CCN(C(=O)N3CCC4OCC(=O)NC4C3)CC2)c1 (single isomer, unassigned)
0.7

Note, next up: O=C(CCOCCOCCOCCNc1ccc([N+](=O)[O-])c2nonc12)NCCOc1cccc(C(c2ccccc2)C2CCN(C(=O)N3CC[C@@H]4OCC(=O)N[C@@H]4C3)CC2)c1 (stereo partly shown)
1
